Source of measurements: patent US5089516A

tested on: epidermal growth factor receptor-tyrosine kinase complex (Homo sapiens, UniProt P00533)
Construct: The membrane preparation was employed in the following measurement without solubilization; endogenous in cells; host or cells: A-431 (ATCC CRL1555), membrane preparation, not solubilized
Sequence (P00533 25-1210, one chain of several): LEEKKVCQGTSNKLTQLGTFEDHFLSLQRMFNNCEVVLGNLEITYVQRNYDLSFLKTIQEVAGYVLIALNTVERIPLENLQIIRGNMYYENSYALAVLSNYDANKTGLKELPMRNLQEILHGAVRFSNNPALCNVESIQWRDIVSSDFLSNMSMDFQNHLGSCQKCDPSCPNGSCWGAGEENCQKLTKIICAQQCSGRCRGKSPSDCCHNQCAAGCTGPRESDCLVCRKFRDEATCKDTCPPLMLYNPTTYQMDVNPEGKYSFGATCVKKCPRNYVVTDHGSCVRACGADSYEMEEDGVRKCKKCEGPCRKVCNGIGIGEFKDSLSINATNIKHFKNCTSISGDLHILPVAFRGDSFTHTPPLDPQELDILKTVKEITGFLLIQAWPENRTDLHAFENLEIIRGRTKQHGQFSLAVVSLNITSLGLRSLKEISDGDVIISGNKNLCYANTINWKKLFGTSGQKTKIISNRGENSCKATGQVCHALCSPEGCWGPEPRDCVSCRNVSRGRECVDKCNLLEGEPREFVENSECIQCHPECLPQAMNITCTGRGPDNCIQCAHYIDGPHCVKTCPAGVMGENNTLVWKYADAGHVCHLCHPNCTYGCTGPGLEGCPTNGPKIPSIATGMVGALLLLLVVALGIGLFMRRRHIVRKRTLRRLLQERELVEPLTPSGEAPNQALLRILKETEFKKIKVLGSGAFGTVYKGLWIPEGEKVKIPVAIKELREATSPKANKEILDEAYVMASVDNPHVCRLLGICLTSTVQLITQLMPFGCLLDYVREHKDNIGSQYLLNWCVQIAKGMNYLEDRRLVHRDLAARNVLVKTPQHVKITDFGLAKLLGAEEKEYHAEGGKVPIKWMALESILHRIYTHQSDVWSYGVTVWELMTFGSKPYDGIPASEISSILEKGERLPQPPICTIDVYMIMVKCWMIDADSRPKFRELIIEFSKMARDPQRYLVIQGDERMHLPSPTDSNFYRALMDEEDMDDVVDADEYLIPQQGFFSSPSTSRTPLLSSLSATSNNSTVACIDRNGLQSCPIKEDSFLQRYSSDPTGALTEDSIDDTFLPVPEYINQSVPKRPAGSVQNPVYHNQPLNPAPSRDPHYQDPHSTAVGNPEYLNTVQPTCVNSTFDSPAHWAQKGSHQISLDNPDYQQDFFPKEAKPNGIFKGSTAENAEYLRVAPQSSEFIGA
test summary: Tyrosine kinase inhibiting activity (A-431 membrane preparation, EGF-stimulated)
Type: biochemical
study conditions: 1 μM in the reaction mixture; read-out: Tyrosine kinase inhibition rate
The recorded inhibition at 1 µM of each item maps onto one of these classes: band A (below 60%), band B (60% to below 80%), band C (80% or more)

Consider the following illustrative entries.
| mol smiles | assigned label |
| --- | --- |
| O=C1NC(=S)SC1=Cc1cc(-c2ccccc2)c(O)c(-c2ccccc2)c1 | band A |
| N#CC(=Cc1cc(-c2ccccc2)c(O)c(-c2ccccc2)c1)C(N)=O | band C |
| CC(C)c1cc(C=C2SC(NCc3ccc(F)cc3)=NC2=O)cc(C(C)C)c1O | band B |

Query: Given `O=C1NN(c2ccccc2)C(=O)C1=Cc1cc(Cc2ccccc2)c(O)c(Cc2ccccc2)c1` , name the class its inhibition at 1 µM places it in.
Reply: band A

Query: Given `CCOc1cc(C=C(C#N)C(N)=O)cc(Cc2ccccc2)c1O` , name the class its inhibition at 1 µM places it in.
Reply: band C

Query: Given `COc1cc(C=C(C#N)C(N)=O)cc(Cc2ccccc2)c1O` , name the class its inhibition at 1 µM places it in.
Reply: band C

Query: Given `CCCCOc1cc(C=C2SC(NCc3ccccc3)=NC2=O)cc(CSc2ccccc2)c1O` , name the class its inhibition at 1 µM places it in.
Reply: band B

Query: Given `O=C1N=C(NCc2ccco2)SC1=Cc1cc(O)c(O)c(CSc2ccccc2)c1` , name the class its inhibition at 1 µM places it in.
Reply: band A

Query: Given `CCCCOc1cc(C=C2C(=O)Nc3ccccc32)cc(Cc2ccccc2)c1O` , name the class its inhibition at 1 µM places it in.
Reply: band A

Query: Given `O=C1NN(c2ccccc2)C(=O)C1=Cc1cc(-c2ccccc2)c(O)c(-c2ccccc2)c1` , name the class its inhibition at 1 µM places it in.
Reply: band B

Query: Given `CCOc1cc(C=C2SC(NCc3ccccc3)=NC2=O)cc(CSc2ccccc2)c1O` , name the class its inhibition at 1 µM places it in.
Reply: band B

----------
tested on: epidermal growth factor receptor-tyrosine kinase complex (Homo sapiens, UniProt P00533)
Construct: The membrane preparation was employed in the following measurement without solubilization; endogenous in cells; host or cells: A-431 (ATCC CRL1555), membrane preparation, not solubilized
test summary: Tyrosine kinase inhibiting activity (A-431 membrane preparation, EGF-stimulated)
Type: biochemical
study conditions: 10 μM in the reaction mixture; read-out: Tyrosine kinase inhibition rate
inhibition at 10 µM reference
Expressed in %, but write only the number.

| mol smiles | quantity unit | inhibition at 10 µM |
| --- | --- | --- |
| O=C1N=C(NCc2ccccc2)SC1=Cc1cc(-c2ccccc2)c(O)c(-c2ccccc2)c1 | % | 72 |
| CC(C)c1cc(C=C2SC(NCc3ccc(Cl)c(Cl)c3)=NC2=O)cc(C(C)C)c1O | % | 83 |
| O=C1NC(=S)SC1=Cc1cc(O)c(O)c(CSc2ccccc2)c1 | % | 59 |
| CC(C)c1cc(C=C2SC(NCc3ccccc3)=NC2=O)cc(C(C)C)c1O | % | 69 |
| Cc1ccc(CNC2=NC(=O)C(=Cc3cc(C(C)C)c(O)c(C(C)C)c3)S2)cc1 | % | 43 |

Consider the record given below.
Query: inhibition at 10 µM lookup needed for `CC(C)c1cc(C=C2SC(NCc3ccc(Cl)cc3)=NC2=O)cc(C(C)C)c1O` , thanks.
Reply: 59

----------
tested on: epidermal growth factor receptor-tyrosine kinase complex (Homo sapiens, UniProt P00533)
Construct: The membrane preparation was employed in the following measurement without solubilization; endogenous in cells; host or cells: A-431 (ATCC CRL1555), membrane preparation, not solubilized
test summary: Tyrosine kinase inhibiting activity (A-431 membrane preparation, EGF-stimulated)
Type: biochemical
study conditions: 10 μM in the reaction mixture; read-out: Tyrosine kinase inhibition rate
inhibition at 10 µM reference
Expressed in %, but write only the number.

Worked set:
| mol smiles | measured attribute | readout number |
| --- | --- | --- |
| CC(C)c1cc(C=C2SC(NCc3ccc(S(N)(=O)=O)cc3)=NC2=O)cc(C(C)C)c1O | inhibition at 10 µM | 70 |
| O=C1Nc2ccccc2C1=Cc1cc(CSc2ccccc2)c(O)c(OCc2ccccc2)c1 | inhibition at 10 µM | 30 |
| CC(C)c1cc(C=C2SC(NCc3ccco3)=NC2=O)cc(C(C)C)c1O | inhibition at 10 µM | 95 |

Query: inhibition at 10 µM lookup needed for `CC(C)c1cc(C=C2SC(NCc3ccccn3)=NC2=O)cc(C(C)C)c1O` , thanks.
Reply: 90

----------
Tested on: Nycobacterium smegmatis ATCC 607
measured attribute: MIC

Worked set:
| mol smiles | result |
| --- | --- |
| CC(C)c1cc(C=C2SC(NCc3ccc(F)cc3)=NC2=O)cc(C(C)C)c1O | 15 mg/L |
| N#CC(=Cc1cc(Cc2ccccc2)c(O)c(Cc2ccccc2)c1)C(N)=O | ≤ 15 mg/L |
| CCCCOc1cc(C=C2SC(NCc3ccccc3)=NC2=O)cc(Cc2ccccc2)c1O | ≤ 6 mg/L |
| CCOc1cc(C=C2SC(NCc3ccccc3)=NC2=O)cc(CSc2ccccc2)c1O | ≤ 15 mg/L |

Query: MIC lookup needed for `CC(C)c1cc(C=C2SC(NCc3ccccc3)=NC2=O)cc(C(C)C)c1O` , thanks.
Reply: ≤ 15 mg/L

Query: MIC lookup needed for `O=C1N=C(NCc2cccs2)SC1=Cc1cc(CSc2ccccc2)c(O)c(OCc2ccccc2)c1` , thanks.
Reply: ≤ 6 mg/L

Query: MIC lookup needed for `CC(C)c1cc(C=C2SC(NCc3cccs3)=NC2=O)cc(C(C)C)c1O` , thanks.
Reply: ≤ 6 mg/L

Query: MIC lookup needed for `CC(C)c1cc(C=C2SC(NCCc3ccccc3)=NC2=O)cc(C(C)C)c1O` , thanks.
Reply: ≤ 6 mg/L

Query: MIC lookup needed for `CC(C)c1cc(C=C2SC(NCc3ccc(N)cc3)=NC2=O)cc(C(C)C)c1O` , thanks.
Reply: ≤ 15 mg/L

Query: MIC lookup needed for `O=C1NC(=S)SC1=Cc1cc(-c2ccccc2)c(O)c(-c2ccccc2)c1` , thanks.
Reply: 6 mg/L

----------
Each entry below carries its measured MIC, system: Bacillus subtilis IFO 3134.
Expressed in µg/mL, but write only the number.

Worked set:
| compound | MIC, µg/mL |
| --- | --- |
| N#CC(=Cc1cc(-c2ccccc2)c(O)c(-c2ccccc2)c1)C(N)=O [Compound 15] | 100 |
| O=C1NN(c2ccccc2)C(=O)C1=Cc1cc(-c2ccccc2)c(O)c(-c2ccccc2)c1 [Compound 19] | 100 |
| CC(C)c1cc(C=C2SC(NCc3ccc(S(N)(=O)=O)cc3)=NC2=O)cc(C(C)C)c1O [Compound 41] | 25 |

Consider the record given below.
Query: State its MIC on Bacillus subtilis IFO 3134: O=C1NN(c2ccccc2)C(=O)C1=Cc1cc(Cc2ccccc2)c(O)c(Cc2ccccc2)c1 [Compound 20]
Reply: 50

----------
inhibition at 1 µM reference
tested on: 5-lipoxygenase (Cavia porcellus)
Construct: The cytosol fraction was used as an enzyme solution; from tissue; host or cells: peritoneal exudate cells of casein-injected Hartley guinea pigs, 105,000×g cytosol
Sequence (A0A286X958 1-674): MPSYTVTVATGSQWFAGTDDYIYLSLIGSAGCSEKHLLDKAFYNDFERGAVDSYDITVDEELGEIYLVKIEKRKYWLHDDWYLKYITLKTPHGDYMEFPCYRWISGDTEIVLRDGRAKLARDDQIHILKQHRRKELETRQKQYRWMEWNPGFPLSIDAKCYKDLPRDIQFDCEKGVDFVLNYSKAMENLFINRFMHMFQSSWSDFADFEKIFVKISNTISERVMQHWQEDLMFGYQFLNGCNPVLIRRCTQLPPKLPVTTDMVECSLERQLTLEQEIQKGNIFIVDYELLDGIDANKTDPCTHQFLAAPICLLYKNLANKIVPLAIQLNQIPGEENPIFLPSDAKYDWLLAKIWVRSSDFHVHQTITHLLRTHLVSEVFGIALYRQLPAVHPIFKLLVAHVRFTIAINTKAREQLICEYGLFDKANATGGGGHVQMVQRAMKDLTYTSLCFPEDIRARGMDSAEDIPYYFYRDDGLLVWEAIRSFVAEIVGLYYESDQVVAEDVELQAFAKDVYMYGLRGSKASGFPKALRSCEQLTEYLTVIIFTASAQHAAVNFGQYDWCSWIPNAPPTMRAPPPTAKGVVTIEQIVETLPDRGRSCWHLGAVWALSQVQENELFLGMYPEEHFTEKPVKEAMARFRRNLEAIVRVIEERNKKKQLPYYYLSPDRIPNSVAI
test summary: 5-Lipoxygenase inhibiting activity (5-HETE formation, cytosol of peritoneal exudate cells)
Format: biochemical, Hartley guinea pigs
study conditions: 1 μM in the reaction mixture; read-out: Inhibition rate (5-lipoxygenase)
Expressed in %, but write only the number.

Worked set:
| compound | inhibition at 1 µM / % |
| --- | --- |
| COc1cc(C=C2C(=O)Nc3ccccc32)cc(Cc2ccccc2)c1O [Compound 13] | 86 |
| CCCCOc1cc(C=C2SC(NCc3ccccc3)=NC2=O)cc(CSc2ccccc2)c1O [Compound 29] | 86 |
| CC(C)c1cc(C=C2SC(NCc3ccco3)=NC2=O)cc(C(C)C)c1O [Compound 43] | 53 |
| O=C1NC(=S)SC1=Cc1cc(CSc2ccccc2)c(O)c(OCc2ccccc2)c1 [Compound 8] | 61 |
| O=C1Nc2ccccc2C1=Cc1cc(CSc2ccccc2)c(O)c(OCc2ccccc2)c1 [Compound 12] | 84 |
| O=C1NN(c2ccccc2)C(=O)C1=Cc1cc(O)c(O)c(Cc2ccccc2)c1 [Compound 24] | 48 |
| O=C1N=C(NCc2cccs2)SC1=Cc1cc(CSc2ccccc2)c(O)c(OCc2ccccc2)c1 [Compound 31] | 49 |
| CCCCOc1cc(C=C2SC(=S)NC2=O)cc(CSc2ccccc2)c1O [Compound 9] | 91 |

Query: inhibition at 1 µM lookup needed for O=C1N=C(NCc2ccccc2)SC1=Cc1cc(-c2ccccc2)c(O)c(-c2ccccc2)c1 [Compound 25] , thanks.
Reply: 23

Query: inhibition at 1 µM lookup needed for O=C1Nc2ccccc2C1=Cc1cc(O)c(O)c(CSc2ccccc2)c1 [Compound 11] , thanks.
Reply: 87

Query: inhibition at 1 µM lookup needed for CCCCOc1cc(C=C2C(=O)Nc3ccccc32)cc(Cc2ccccc2)c1O [Compound 14] , thanks.
Reply: 27

Query: inhibition at 1 µM lookup needed for CCCCOc1cc(C=C2SC(NCc3ccccc3)=NC2=O)cc(Cc2ccccc2)c1O [Compound 30] , thanks.
Reply: 87

Query: inhibition at 1 µM lookup needed for CCCCOc1cc(C=C2SC(=S)NC2=O)cc(Cc2ccccc2)c1O [Compound 10] , thanks.
Reply: 23

Query: inhibition at 1 µM lookup needed for O=C1N=C(NCc2ccccc2)SC1=Cc1cc(Cc2ccccc2)c(O)c(Cc2ccccc2)c1 [Compound 26] , thanks.
Reply: 84

Query: inhibition at 1 µM lookup needed for O=C1NC(=S)SC1=Cc1cc(O)c(O)c(CSc2ccccc2)c1 [Compound 7] , thanks.
Reply: 88

Query: inhibition at 1 µM lookup needed for CC(C)c1cc(C=C2SC(NCc3ccccn3)=NC2=O)cc(C(C)C)c1O [Compound 45] , thanks.
Reply: 36
